# target-entity: Ghrelin/GHRP/GHS Receptor (Rattus norvegicus, UniProt O08725)
# Sequence (O08725 whole entry): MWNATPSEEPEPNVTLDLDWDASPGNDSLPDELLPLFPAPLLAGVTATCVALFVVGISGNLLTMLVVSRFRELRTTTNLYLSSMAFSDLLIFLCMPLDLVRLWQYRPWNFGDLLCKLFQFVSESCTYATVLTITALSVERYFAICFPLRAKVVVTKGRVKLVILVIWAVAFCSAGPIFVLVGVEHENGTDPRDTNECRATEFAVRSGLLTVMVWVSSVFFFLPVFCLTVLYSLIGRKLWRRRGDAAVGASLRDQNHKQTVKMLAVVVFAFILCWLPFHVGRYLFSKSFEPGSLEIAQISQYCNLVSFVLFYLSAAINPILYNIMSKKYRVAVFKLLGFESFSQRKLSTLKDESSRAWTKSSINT
# test-description: In vitro cell culture method: GH release from cell culture of pituitary cells, peptide alone or plus stimulator
# Assay type: cell-based
# Set-up: from cell culture of pituitary cells; endogenous in cells; host or cells: dispersed primary rat anterior pituitary cells, 4 days in culture
# measurement-parameters: Table 10; 30 μg/ml
Below, each entry is listed with its recorded GH release, second line of entry (no mark).
metric: GH release, second line of entry (no mark) (ng/mL)

* C=C(C)CON=C(c1ccccc1)c1ccccc1 [O-(2-methylallyl) benzophonone oxime, O-(2-methylallyl)benzophenone oxime] | 699
* COc1ccccc1N1CCN(C(=O)c2cc3ccccc3cc2C(=O)N2CCN(c3ccccc3OC)CC2)CC1 | 309
* CCOC(=O)c1cc2ccccc2cc1C(=O)N1CCC(c2ccccc2OC)CC1 | 223
* N[C@H](COCc1ccccc1)C(=O)N1CCN(c2ccccc2)CC1 [D Ser(BZL)-N′-phenyl-N-piperazinamide] | 435
* CC(=O)NCCCC[C@H](NC(=O)[C@@H](N)COCc1ccccc1)C(=O)N[C@@H](Cc1c[nH]c2ccccc12)C(=O)N1CCC(c2ccccc2)CC1 | 399
* CC(C)(N)C(=O)N[C@H](COCc1ccccc1)C(=O)N1CCN(c2ccccc2)CC1 [αAibDSer(BZL)-N′-phenyl-N-piperazinamide] | 510
* N[C@H](Cc1c[nH]c2ccccc12)C(=O)N1CCC(c2ccccc2)CC1 [DTrp-4-phenylpiperdinamide] | 486

====

# target-entity: Ghrelin/GHRP/GHS Receptor (Rattus norvegicus)
# test-description: In vitro cell culture method: GH release from cell culture of pituitary cells, peptide alone or plus stimulator
# Type: cell-based
# Set-up: from cell culture of pituitary cells; endogenous in cells; host or cells: dispersed primary rat anterior pituitary cells, 4 days in culture
# measurement-parameters: Table 10; 10 μg/ml
Form field: GH release, second line of entry (no mark) (one value per entry).
metric: GH release, second line of entry (no mark) (ng/mL)

- C=C(C)CON=C(c1ccccc1)c1ccccc1 [O-(2-methylallyl) benzophonone oxime, O-(2-methylallyl)benzophenone oxime]: 1281
- N[C@H](COCc1ccccc1)C(=O)N1CCN(c2ccccc2)CC1 [D Ser(BZL)-N′-phenyl-N-piperazinamide]: 719
- CC(=O)NCCCC[C@H](NC(=O)[C@@H](N)COCc1ccccc1)C(=O)N[C@@H](Cc1c[nH]c2ccccc12)C(=O)N1CCC(c2ccccc2)CC1: 571
- CC(C)(N)C(=O)N[C@H](COCc1ccccc1)C(=O)N1CCN(c2ccccc2)CC1 [αAibDSer(BZL)-N′-phenyl-N-piperazinamide]: 878
- N[C@H](Cc1c[nH]c2ccccc12)C(=O)N1CCC(c2ccccc2)CC1 [DTrp-4-phenylpiperdinamide]: 344
- NCCCC[C@@H](NC(=O)[C@@H](CO)NC(=O)c1ccccc1)C(=O)N[C@@H](Cc1c[nH]c2ccccc12)C(=O)N1CCC(c2ccccc2)CC1: 353
- CCOC(=O)c1cc2ccccc2cc1C(=O)N1CCC(c2ccccc2OC)CC1: 480

====

Reported GH release, first line of entry (mark P + S) values for the following molecules.
# target-entity: Ghrelin/GHRP/GHS Receptor (Rattus norvegicus)
# test-description: In vitro cell culture method: GH release from cell culture of pituitary cells, peptide alone or plus stimulator
# Type: cell-based
# Parameters: from cell culture of pituitary cells; endogenous in cells; host or cells: dispersed primary rat anterior pituitary cells, 4 days in culture
# measurement-parameters: Table 10; 30 μg/ml; stimulator 1 ng/ml
metric: GH release, first line of entry (mark P + S)

* COc1ccccc1N1CCN(C(=O)c2cc3ccccc3cc2C(=O)N2CCN(c3ccccc3OC)CC2)CC1 | 118 ± 8 ng/mL
* CC(C)(N)C(=O)N[C@H](COCc1ccccc1)C(=O)N1CCN(c2ccccc2)CC1 [αAibDSer(BZL)-N′-phenyl-N-piperazinamide] | 499 ± 18 ng/mL
* N[C@H](COCc1ccccc1)C(=O)N1CCN(c2ccccc2)CC1 [D Ser(BZL)-N′-phenyl-N-piperazinamide] | 368 ± 2 ng/mL
* C=C(C)CON=C(c1ccccc1)c1ccccc1 | 616 ± 23 ng/mL
* CCOC(=O)c1cc2ccccc2cc1C(=O)N1CCC(c2ccccc2OC)CC1 | 176 ± 11 ng/mL
* N[C@H](Cc1c[nH]c2ccccc12)C(=O)N1CCC(c2ccccc2)CC1 [DTrp-4-phenylpiperdinamide] | 577 ± 24 ng/mL
* CC(=O)NCCCC[C@H](NC(=O)[C@@H](N)COCc1ccccc1)C(=O)N[C@@H](Cc1c[nH]c2ccccc12)C(=O)N1CCC(c2ccccc2)CC1 | 273 ± 39 ng/mL

====

# target-entity: Ghrelin/GHRP/GHS Receptor (Rattus norvegicus, UniProt O08725)
# test-description: In vitro cell culture method: GH release from cell culture of pituitary cells, peptide alone or plus stimulator
# Type: cell-based
# Set-up: from cell culture of pituitary cells; endogenous in cells; host or cells: dispersed primary rat anterior pituitary cells, 4 days in culture
# measurement-parameters: Table 10; 10 μg/ml; stimulator 1 ng/ml
We begin with a simple list: items and their reported GH release, first line of entry (mark P + S).
metric: GH release, first line of entry (mark P + S)

• N[C@H](Cc1c[nH]c2ccccc12)C(=O)N1CCC(c2ccccc2)CC1 [DTrp-4-phenylpiperdinamide] = 520 ± 61 ng/mL
• N[C@H](COCc1ccccc1)C(=O)N1CCN(c2ccccc2)CC1 [D Ser(BZL)-N′-phenyl-N-piperazinamide] = 585 ± 10 ng/mL
• CC(C)(N)C(=O)N[C@H](COCc1ccccc1)C(=O)N1CCN(c2ccccc2)CC1 [αAibDSer(BZL)-N′-phenyl-N-piperazinamide] = 777 ± 34 ng/mL
• C=C(C)CON=C(c1ccccc1)c1ccccc1 = 929 ± 28 ng/mL
• NCCCC[C@@H](NC(=O)[C@@H](CO)NC(=O)c1ccccc1)C(=O)N[C@@H](Cc1c[nH]c2ccccc12)C(=O)N1CCC(c2ccccc2)CC1 = 369 ± 30 ng/mL
• CC(=O)NCCCC[C@H](NC(=O)[C@@H](N)COCc1ccccc1)C(=O)N[C@@H](Cc1c[nH]c2ccccc12)C(=O)N1CCC(c2ccccc2)CC1 = 388 ± 41 ng/mL
• CCOC(=O)c1cc2ccccc2cc1C(=O)N1CCC(c2ccccc2OC)CC1 = 373 ± 2 ng/mL

====

# target-entity: Ghrelin/GHRP/GHS Receptor (Rattus norvegicus)
# test-description: In vitro cell culture method: GH release from cell culture of pituitary cells, peptide alone or plus stimulator
# Assay type: cell-based
# Parameters: from cell culture of pituitary cells; endogenous in cells; host or cells: dispersed primary rat anterior pituitary cells, 4 days in culture
# measurement-parameters: Table 11; 10 μg/ml; stimulator 1 ng/ml
The following molecules are shown together with reported GH release, first line of entry (mark P + S) values.
metric: GH release, first line of entry (mark P + S) (ng/mL)

• COC(=O)c1cc2ccccc2cc1C(=O)Nc1ccc(C)cc1 [methyl 3-(p-tolylcarbamoyl)-2-naphthoate] = 754
• NCC[C@H](N)C(=O)N[C@H](COCc1ccc2ccccc2c1)C(=O)N1CCC(c2ccccc2)CC1 = 794
• CC(=O)N[C@@H](COCc1ccccc1)C(=O)N[C@@H](CCCCN)C(=O)N[C@H](Cc1c[nH]c2ccccc12)C(=O)N1CCC(c2ccccc2)CC1 = 245
• COc1ccccc1C1CCN(C(=O)[C@@H](Cc2c[nH]c3ccccc23)NC(=O)C(C)(C)N)CC1 = 365
